Reported inhibition at 0.01 µM by item:
study target: Monoamineoxidase B type human-derived enzyme (Homo sapiens, UniProt P27338)
Sequence (P27338 1-520): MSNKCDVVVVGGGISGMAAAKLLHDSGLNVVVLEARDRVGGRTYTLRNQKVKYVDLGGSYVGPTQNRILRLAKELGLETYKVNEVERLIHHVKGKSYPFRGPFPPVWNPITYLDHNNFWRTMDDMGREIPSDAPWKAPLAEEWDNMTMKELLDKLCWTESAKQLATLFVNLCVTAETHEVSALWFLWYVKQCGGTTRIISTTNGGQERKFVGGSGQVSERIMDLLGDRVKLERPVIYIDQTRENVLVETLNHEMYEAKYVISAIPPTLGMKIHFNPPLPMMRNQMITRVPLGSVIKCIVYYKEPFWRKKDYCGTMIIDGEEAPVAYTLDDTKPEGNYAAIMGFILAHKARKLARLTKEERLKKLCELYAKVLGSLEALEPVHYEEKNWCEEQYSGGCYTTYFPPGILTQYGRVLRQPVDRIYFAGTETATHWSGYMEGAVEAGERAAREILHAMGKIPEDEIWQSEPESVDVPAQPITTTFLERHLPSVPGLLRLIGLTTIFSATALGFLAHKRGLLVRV
assay text: Inhibitory effects on the activity of MAO-B (Amplex Red fluorescence, benzylamine substrate)
Type: biochemical
experimental context: read-out: Inhibitory effects (%) on the activity of MAO-B
property label: inhibition at 0.01 µM

{"structure": "NC(=O)OCc1cc(-c2ccc(OCc3ccccc3)cc2)no1", "study target": "Monoamineoxidase B type human-derived enzyme (Homo sapiens, UniProt P27338)", "property label": "inhibition at 0.01 µM", "observed result": "96.6%"}
{"structure": "NC(=O)OCc1cc(-c2ccc(NCc3ccccc3)cc2)no1", "study target": "Monoamineoxidase B type human-derived enzyme (Homo sapiens, UniProt P27338)", "property label": "inhibition at 0.01 µM", "observed result": "84.5%"}
{"structure": "CCCCOc1ccc(-c2cc(COC(N)=O)on2)cc1", "study target": "Monoamineoxidase B type human-derived enzyme (Homo sapiens, UniProt P27338)", "property label": "inhibition at 0.01 µM", "observed result": "96.8%"}
{"structure": "NC(=O)OCc1cc(-c2ccc(OCc3ccc(Cl)s3)cc2)no1", "study target": "Monoamineoxidase B type human-derived enzyme (Homo sapiens, UniProt P27338)", "property label": "inhibition at 0.01 µM", "observed result": "98.6%"}
{"structure": "CCCOc1ccc(-c2cc(COC(N)=O)on2)cc1", "study target": "Monoamineoxidase B type human-derived enzyme (Homo sapiens, UniProt P27338)", "property label": "inhibition at 0.01 µM", "observed result": "85.3%"}
{"structure": "NC(=O)OCc1nc(-c2ccc(OCc3ccccc3)cc2)ns1", "study target": "Monoamineoxidase B type human-derived enzyme (Homo sapiens, UniProt P27338)", "property label": "inhibition at 0.01 µM", "observed result": "92%"}
{"structure": "NC(=O)OCc1cc(-c2ccc(OCc3ccncc3)cc2)no1", "study target": "Monoamineoxidase B type human-derived enzyme (Homo sapiens, UniProt P27338)", "property label": "inhibition at 0.01 µM", "observed result": "94.2%"}
{"structure": "NC(=O)OCc1cc(-c2ccc(NCc3ccoc3)cc2)no1", "study target": "Monoamineoxidase B type human-derived enzyme (Homo sapiens, UniProt P27338)", "property label": "inhibition at 0.01 µM", "observed result": "69%"}
{"structure": "NC(=O)OCc1cc(-c2ccc(OCCCCO)cc2)no1", "study target": "Monoamineoxidase B type human-derived enzyme (Homo sapiens, UniProt P27338)", "property label": "inhibition at 0.01 µM", "observed result": "25%"}
{"structure": "CCCCCOc1ccc(-c2cc(COC(N)=O)on2)cc1", "study target": "Monoamineoxidase B type human-derived enzyme (Homo sapiens, UniProt P27338)", "property label": "inhibition at 0.01 µM", "observed result": "74.3%"}
{"structure": "NC(=O)OCc1cc(-c2ccc(OCC3CCCC3)cc2)no1", "study target": "Monoamineoxidase B type human-derived enzyme (Homo sapiens, UniProt P27338)", "property label": "inhibition at 0.01 µM", "observed result": "88.1%"}

* * *

Reported inhibition at 0.01 µM by item:
study target: Monoamineoxidase B type human-derived enzyme (Homo sapiens, UniProt P27338)
assay text: Inhibitory effects on the activity of MAO-B (Amplex Red fluorescence, benzylamine substrate)
Assay type: biochemical
experimental context: treatment concentration 10 nM; read-out: Inhibitory effects (%) on the activity of MAO-B
Method: Monoamineoxidase A or B type human-derived enzyme (5 mg/ml) was each diluted with 0.05 M sodium phosphate buffer (pH 7.4) to yield a dilution of 1:200, and then 100 μl of an enzyme buffer containing 2 μl of a compound 1 solution at the corresponding concentration was placed in a test plate (flat-bottom) and incubated for 30 minutes. […]

{"compound": "NC(=O)OCc1cc(-c2ccc(OCc3ccccc3)c(F)c2)no1 [Example 8]", "inhibition at 0.01 µM [%]": 72.7}
{"compound": "c1ccc(COc2ccc(-c3cc(Cn4ncnn4)on3)cc2)cc1 [Example 146]", "inhibition at 0.01 µM [%]": 86}
{"compound": "O=C(OCc1cc(-c2ccc(OCc3ccccc3)cc2)no1)N1CCCCC1 [Example 126]", "inhibition at 0.01 µM [%]": 48.7}
{"compound": "NC(=O)OCc1cc(-c2ccc(NCc3cccc(Cl)c3Cl)cc2)no1 [Example 88]", "inhibition at 0.01 µM [%]": 60}
{"compound": "NC(=O)OCc1cc(-c2ccc(NCc3c(F)cccc3F)cc2)no1 [Example 79]", "inhibition at 0.01 µM [%]": 84.6}
{"compound": "Cc1nccn1Cc1cc(-c2ccc(OCc3ccccc3)cc2)no1 [Example 140]", "inhibition at 0.01 µM [%]": 91.7}
{"compound": "NC(=O)C(CO)NCc1cc(-c2ccc(OCc3ccccc3)cc2)no1 (stereo not shown) [Example 167]", "inhibition at 0.01 µM [%]": 21.8}
{"compound": "NC(=O)OCc1cc(-c2ccc(NCc3cccc(F)c3F)cc2)no1 [Example 80]", "inhibition at 0.01 µM [%]": 74.5}
{"compound": "Cc1ccc(CNc2ccc(-c3cc(COC(N)=O)on3)cc2)c(C)c1 [Example 103]", "inhibition at 0.01 µM [%]": 20.7}
{"compound": "NC(=O)OCc1cc(-c2ccc(OCc3cccc(F)c3F)cc2)no1 [Example 15]", "inhibition at 0.01 µM [%]": 96.2}
{"compound": "NC(=O)OCc1cc(-c2ccc(OCc3ccccc3)c(Cl)c2)no1 [Example 7]", "inhibition at 0.01 µM [%]": 75.9}
{"compound": "Clc1ccc(COc2ccc(-c3cc(Cn4ccnc4)on3)cc2)cc1 [Example 157]", "inhibition at 0.01 µM [%]": 37.2}
{"compound": "NC(=O)OCc1cc(-c2ccc(NCc3cccc(C(F)(F)F)c3)cc2)no1 [Example 96]", "inhibition at 0.01 µM [%]": 40.9}
{"compound": "Cc1cccc(COc2ccc(-c3cc(COC(N)=O)on3)cc2)c1 [Example 200]", "inhibition at 0.01 µM [%]": 87.6}
{"compound": "COc1ccccc1CNc1ccc(-c2cc(COC(N)=O)on2)cc1 [Example 104]", "inhibition at 0.01 µM [%]": 89.1}
{"compound": "COC(=O)c1ccc(COc2ccc(-c3cc(COC(N)=O)on3)cc2)o1 [Example 73]", "inhibition at 0.01 µM [%]": 58.1}
{"compound": "Cc1cn(Cc2cc(-c3ccc(OCc4ccccc4)cc3)no2)cn1 [Example 141]", "inhibition at 0.01 µM [%]": 92.2}
{"compound": "NC(=O)OCc1cc(-c2ccc(OCc3ccccc3Cl)cc2)no1 [Example 21]", "inhibition at 0.01 µM [%]": 92.9}
{"compound": "NC(=O)OCc1cc(-c2ccc(OCc3cccc(C(F)(F)F)c3)cc2)no1 [Example 19]", "inhibition at 0.01 µM [%]": 94.2}

* * *

Reported response vs control in vivo at 10 mg/kg by item:
Test system: dopamine (DA) in the striata of MPTP-treated mice
assay text: Levels of dopamine in the striata of MPTP-treated mice (HPLC)
Assay type: in vivo
experimental context: Mus musculus, po, 168 h, 10 mpk, 7 days after MPTP, read-out: Levels of dopamine (DA) in the striata, compared to a control group %
property label: response vs control in vivo at 10 mg/kg

{"structure": "CCCCCCOc1ccc(-c2cc(COC(N)=O)on2)cc1", "observed result": "41.1%"}
{"structure": "NC(=O)OCc1cc(-c2ccc(OCc3cccc(F)c3)cc2)no1", "observed result": "78.8%"}
{"structure": "NC(=O)OCc1cc(-c2ccc(OCc3ccc(C=NO)cc3)cc2)no1", "observed result": "79.2%"}
{"structure": "NC(=O)OCc1cc(-c2ccc(OCc3ccccn3)cc2)no1", "observed result": "74.9%"}
{"structure": "CNC(=O)OCc1cc(-c2ccc(OCc3ccccc3)cc2)no1", "observed result": "97.9%"}
{"structure": "NC(=O)OCc1cc(-c2ccc(OCc3ccccc3)cc2)no1", "observed result": "112%"}
{"structure": "NC(=O)OCc1cc(-c2ccc(OCn3nnc4ccccc43)cc2)no1", "observed result": "41.1%"}
{"structure": "NC(=O)OCc1cc(-c2ccc(OCc3cccc(C=NO)c3)cc2)no1", "observed result": "52.9%"}
